Biological target: T1, human angiopoietin-2 (human, UniProt O15123 19-496, limits assumed)
T1 construct: Bought recombinant protein with a His tag (detected by anti-HIS-tag antibody); also called human Ang-2; hAng-2
T1 sequence (looked up): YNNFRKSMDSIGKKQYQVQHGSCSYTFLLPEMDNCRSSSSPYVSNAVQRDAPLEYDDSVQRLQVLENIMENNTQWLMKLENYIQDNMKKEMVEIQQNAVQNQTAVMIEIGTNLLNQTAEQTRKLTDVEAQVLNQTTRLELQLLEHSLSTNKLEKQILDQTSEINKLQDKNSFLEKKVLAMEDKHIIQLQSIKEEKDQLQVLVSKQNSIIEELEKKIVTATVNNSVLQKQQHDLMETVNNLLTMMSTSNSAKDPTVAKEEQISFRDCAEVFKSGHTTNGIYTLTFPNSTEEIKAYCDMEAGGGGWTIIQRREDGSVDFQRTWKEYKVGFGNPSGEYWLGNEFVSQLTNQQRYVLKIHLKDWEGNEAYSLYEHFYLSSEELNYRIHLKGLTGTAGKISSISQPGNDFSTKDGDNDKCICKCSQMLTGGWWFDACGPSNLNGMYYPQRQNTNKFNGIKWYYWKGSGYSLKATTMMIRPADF
Test: competition cell ECL; hAng-2 pre-incubated with binder, free Ang-2 captured on HEK:hTie-2 cells (competitor)
# IC50 per record follows
Your answer should be a number followed by the unit of measure.

Some solved cases for reference:
binder	IC50
hNGAL lipocalin mutein SEQ ID NO: 7 (designed binder, Mutein of mature hNGAL; Biotinylated with NHS-PEG4-Biotin for the SPR assay) QDSTSDLIPAPPLSKVPLQQNFQDNQFHGKWYVVGHAGNYILREDKDPEKMWATIYELKEDKSYDVTEVSFGPKKCNYRIWTFVPGSQPGEFTLGGIKSPPGDTSTLVRVVSTNYNQHAMVFFKHVLQNREFFEITLYGRTKELTSELKENFIRFSKSLGLPENHIVFPVPIDQCIDGSAWSHPQFEK	3.6 nM
hNGAL lipocalin mutein SEQ ID NO: 12 (designed binder, Mutein of mature hNGAL) QDSTSDLIPAPPLSKVPLQQNFQDNQFHGKWYVVGVAGNWYLREDKDPIKMTATIYELKEDKSYDVTQVGFEQEKCKYSIHTFVPGSQPGEFTLGNIKSWPGDTSPLVRVVSTNYDQHAMVFFKGVMQDREVFAITLYGRTKELTSELKENFIRFSKSLGLPENHIVFPVPIDQCIDGSAWSHPQFEK	5.29 nM

Here is another binder to look at.
Consider hNGAL lipocalin mutein SEQ ID NO: 13 (designed binder, Mutein of mature hNGAL) QDSTSDLIPAPPLSKVPLQQNFQDNQFHGKWYVVGVAGNWYLREDKDPIKMTATIYELKEDKSYDVTQVGFEQEKCKYSIHTFVPGSQPGEFTLGDIKSWPGDTSPLVRVVSTNYNQHAMVFFKGMMQDREVFAITLYGRTKELTSELKENFIRFSKSLGLPENHIVFPVPIDQCIDGSAWSHPQFEK . Its measured IC50 is 5.43 nM

Where do these numbers come from? They come from patent US20180016312A1.
